// Activity lookup, one value per entry
tested on: Rattus norvegicus; assay: Antisecretory activity in rat assessed as decrease in volume of gastric secretion at 1.5 mg/kg, sc immediately after surgery and again 2 hrs later measured after 4 hrs of pyloric ligation; format: functional, Stomach; parameters: scale not given: the % may be the effect or the level left; details: route subcutaneous
State the answer as a number, implicitly in %.

QUERY: Find Activity (Rattus norvegicus) for the entry CCCCCC(O)/C=C/CCCC(=O)N(C)CCCCCCC(=O)O (stereo not given)
RESULT: 25

---
QUERY: Param readout = Activity; param system = Rattus norvegicus; param query = `CCCCC[C@H](O)/C=C/[C@H]1[C@H](O)CC(=O)[C@@H]1CCCCCCC(=O)O` ; response: value
RESULT: 74

QUERY: // lookup Activity | system=Rattus norvegicus | key= CCCCCC(O)/C=C/CCCC(=O)N(C)CCCCCCC(=O)OC (stereo not given)
RESULT: 21

QUERY: Please tell me: Activity of `CCCCC[C@H](O)/C=C/[C@@H]1[C@@H](C/C=C\CCCC(=O)O)[C@@H](O)C[C@H]1O` , system Rattus norvegicus?
RESULT: 37

QUERY: Query the reported Activity for Rattus norvegicus; item: CCCCCC(O)/C=C/CCOC(=O)CCCCCCCC(=O)OC (stereo not given)
RESULT: 25
